Test: Quantitative High-Throughput drug screen in 47 multiple myeloma cell lines against the NCATS MIPE library collection: MOLP8_DSMZ cell viability assay (AID 1918977); note: nearly all actives have a fitted effect of over 45% in size
Conditions: MOLP8 myeloma viability, CellTiter-Glo ATP luminescence, 48 h; series mostly up to 45.8 µM
From the text: PI: Beverly A. Mock Ph.D. Laboratory of Cancer Biology and Genetics, Center for Cancer Research, National Cancer Institute, National Institute of Health, Bethesda, Maryland […] 5; Detector; 425V; Luminescence; Viewlux PerkinElmer. […] 1. […] Briefly, the corresponding myeloma cell lines were screened in 1,536-well plates with 500 cells, 5-uL per well for inhibition of cell viability (assessed by measuring ATP levels with CellTiterGlo). […]
Records with an inconclusive call do not appear. Activity calls are given as the source filed them. Calls come from the whole dose curve; as a rule, active = well fitted cell-killing curve with a large enough effect; inconclusive = small, poorly fitted or top-dose-only effect, or effect the other way; inactive = no such curve, though single readings can be large or run the other way.
Respond using exactly one of the listed classes: Yes for active, No for inactive

Reference set (3 entries):
# compound, cat
measured = [
    ("O=C(O)C[C@H](O)C[C@H](O)C=Cc1c(C2CC2)nc2ccccc2c1-c1ccc(F)cc1", "Yes"),
    ("O=c1c(O)c(-c2ccc(O)c(O)c2)oc2cc(O)ccc12", "Yes"),
    ("C=CC(=O)N1CCc2ccc(-n3c(=O)ccc4cnc5ccc(-c6cnn(C)c6)cc5c43)cc21", "Yes"),
]

Note: attention shifts to another entry.
Q. Answer briefly: the call reported for C[C@H](CCC(=O)O)[C@H]1CC[C@H]2[C@@H]3[C@H](O)C[C@@H]4C[C@H](O)CC[C@]4(C)[C@@H]3CC[C@]12C in this assay.
A. No
